Documented Ki across a set of compounds
- target_entity: soluble human BACE1 catalytic domain (Homo sapiens (Human), UniProt P56817)
- Sequence (P56817 75-416): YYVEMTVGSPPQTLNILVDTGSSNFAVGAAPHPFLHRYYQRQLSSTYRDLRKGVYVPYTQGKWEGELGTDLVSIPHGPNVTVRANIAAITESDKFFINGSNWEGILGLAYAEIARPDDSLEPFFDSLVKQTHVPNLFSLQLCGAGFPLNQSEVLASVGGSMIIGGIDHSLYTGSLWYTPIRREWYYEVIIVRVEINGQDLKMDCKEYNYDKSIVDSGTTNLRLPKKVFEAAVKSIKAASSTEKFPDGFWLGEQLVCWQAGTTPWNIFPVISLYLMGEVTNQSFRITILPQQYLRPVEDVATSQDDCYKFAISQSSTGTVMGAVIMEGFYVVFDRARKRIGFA
metric_name: Ki

smiles_repr	metric_name	readout_value
CN1C(=N)N[C@]2(C)c3cc(NC(=O)c4ccc(F)cn4)ccc3CCC[C@@H]2S1(=O)=O	Ki	18 nM
CN1C(=N)N[C@]2(C)c3cc(NC(=O)c4ncc(F)cc4F)ccc3CCC[C@@H]2S1(=O)=O	Ki	18 nM
CN1C(=N)N[C@]2(C)c3cc(NC(=O)c4ncc(C(F)(F)F)cc4Cl)ccc3OCC[C@@H]2S1(=O)=O	Ki	5 nM
COc1cnc2c(Nc3ccc4c(c3)[C@@]3(C)NC(=N)N(C)S(=O)(=O)[C@H]3CCC4)nccc2n1	Ki	45 nM
CN1C(=N)N[C@]2(C)c3cc(NC4CCCC4)ccc3OCC[C@@H]2S1(=O)=O	Ki	348 nM
CN1C(=N)N[C@]2(C)c3cc(NC(=O)c4ccc(OC(F)F)cn4)ccc3CCC[C@H]2S1(=O)=O	Ki	80 nM
Cc1cnc(C(=O)Nc2ccc3c(c2)[C@@]2(C)NC(=N)N(C)S(=O)(=O)[C@@H]2CCC3)cn1	Ki	1390 nM
CN1C(=N)N[C@]2(C)c3cc(NC(=O)c4ncc(C(F)(F)F)cc4Cl)ccc3CCC[C@@H]2S1(=O)=O	Ki	10 nM
CN1C(=N)N[C@]2(C)c3cc(NCC4CC4)ccc3OCC[C@@H]2S1(=O)=O	Ki	880 nM
CN1C(=N)N[C@]2(C)c3cc(NC(=O)c4ccc(F)cn4)ccc3OCC[C@H]2S1(=O)=O	Ki	108 nM
COc1cnc2c(Nc3ccc4c(c3)[C@@]3(C)NC(=N)N(C)S(=O)(=O)[C@H]3CCC4)nccc2c1	Ki	108 nM
CN1C(=N)N[C@]2(C)c3cc(NC(=O)c4ncc(F)cc4F)ccc3OCC[C@@H]2S1(=O)=O	Ki	10 nM
